Task for the reader: assign each of the following binders its reported EC50.
biological target: human FGFR1c + KLB receptor complex on HEK293 iLite FGF21 reporter cells (human, UniProt P11362 22-822; Q86Z14 1-1044); assay: cell-based or functional assay
Sequence (P11362 22-822, chain 1 of 2): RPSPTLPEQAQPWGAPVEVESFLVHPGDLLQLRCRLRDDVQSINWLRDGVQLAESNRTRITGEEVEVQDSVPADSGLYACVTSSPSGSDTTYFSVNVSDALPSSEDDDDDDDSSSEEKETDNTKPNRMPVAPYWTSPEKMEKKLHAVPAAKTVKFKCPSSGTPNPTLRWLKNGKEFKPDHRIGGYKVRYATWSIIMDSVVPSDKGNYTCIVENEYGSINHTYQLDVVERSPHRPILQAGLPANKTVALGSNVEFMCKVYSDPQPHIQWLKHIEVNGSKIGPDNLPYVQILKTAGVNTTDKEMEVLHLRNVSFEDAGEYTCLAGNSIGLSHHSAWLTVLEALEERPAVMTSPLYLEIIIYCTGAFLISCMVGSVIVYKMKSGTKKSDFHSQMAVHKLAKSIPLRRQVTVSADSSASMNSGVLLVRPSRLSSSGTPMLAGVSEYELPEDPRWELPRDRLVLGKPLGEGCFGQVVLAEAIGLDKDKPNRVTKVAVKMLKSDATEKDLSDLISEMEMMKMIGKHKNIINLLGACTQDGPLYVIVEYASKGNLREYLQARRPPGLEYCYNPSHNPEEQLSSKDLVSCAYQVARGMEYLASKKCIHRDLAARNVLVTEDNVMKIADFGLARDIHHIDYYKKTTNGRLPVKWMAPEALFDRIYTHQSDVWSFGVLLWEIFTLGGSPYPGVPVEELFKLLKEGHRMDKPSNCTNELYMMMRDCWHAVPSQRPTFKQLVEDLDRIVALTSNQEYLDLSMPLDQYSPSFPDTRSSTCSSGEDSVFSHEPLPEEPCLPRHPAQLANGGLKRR
Sequence (Q86Z14 whole entry, chain 2 of 2): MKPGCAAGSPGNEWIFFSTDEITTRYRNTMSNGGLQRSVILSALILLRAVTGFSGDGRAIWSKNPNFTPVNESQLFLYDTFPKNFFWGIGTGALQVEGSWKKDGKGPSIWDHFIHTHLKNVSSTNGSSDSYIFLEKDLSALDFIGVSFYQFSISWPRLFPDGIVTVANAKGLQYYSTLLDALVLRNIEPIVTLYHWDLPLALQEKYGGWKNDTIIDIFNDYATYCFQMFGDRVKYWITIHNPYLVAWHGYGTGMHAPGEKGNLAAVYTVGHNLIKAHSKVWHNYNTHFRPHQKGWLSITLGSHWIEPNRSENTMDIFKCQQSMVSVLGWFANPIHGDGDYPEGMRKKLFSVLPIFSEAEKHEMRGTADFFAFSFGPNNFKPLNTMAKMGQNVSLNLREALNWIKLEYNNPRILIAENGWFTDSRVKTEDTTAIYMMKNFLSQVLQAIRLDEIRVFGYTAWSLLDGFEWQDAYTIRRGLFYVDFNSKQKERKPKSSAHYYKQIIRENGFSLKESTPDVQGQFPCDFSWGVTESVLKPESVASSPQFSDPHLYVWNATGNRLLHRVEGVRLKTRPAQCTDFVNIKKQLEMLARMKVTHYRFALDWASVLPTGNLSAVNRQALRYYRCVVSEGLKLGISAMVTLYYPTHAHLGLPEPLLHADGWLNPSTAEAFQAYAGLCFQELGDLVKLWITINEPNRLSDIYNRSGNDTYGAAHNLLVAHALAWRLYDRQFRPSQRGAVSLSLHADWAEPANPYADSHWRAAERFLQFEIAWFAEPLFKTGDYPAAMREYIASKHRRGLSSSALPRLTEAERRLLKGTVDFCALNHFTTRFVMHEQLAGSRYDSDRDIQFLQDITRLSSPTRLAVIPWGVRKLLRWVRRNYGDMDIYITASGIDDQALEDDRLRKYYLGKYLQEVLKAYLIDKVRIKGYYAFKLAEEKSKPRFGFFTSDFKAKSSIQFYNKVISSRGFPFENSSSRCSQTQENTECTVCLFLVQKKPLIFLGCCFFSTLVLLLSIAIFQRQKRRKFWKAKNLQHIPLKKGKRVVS
# unit: nmol/L | format: bare number

Reported EC50 of Ab0307 (antibody, IgG4, V domains shown, IgG4 PE) VH: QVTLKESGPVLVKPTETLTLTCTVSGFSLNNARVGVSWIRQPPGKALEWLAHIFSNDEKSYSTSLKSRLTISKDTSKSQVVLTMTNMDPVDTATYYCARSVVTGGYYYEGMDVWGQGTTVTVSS VL: SYVLTQPPSVSVAPGQTARITCGGNNIGSESVHWYQQKPGQAPVLVVYYDSDRPSGIPERFSGSNSGNTATLTISRVEAGDEADYYCQVWDGESDHVVFGGGTKLTVLG : 0.06

Documented EC50 of Ab0456 (antibody, IgG4, V domains shown) VH: QVTLKESGPVLVKPTETLTLTCTVSGFSLTYARVGVSWIRQPPGKALEWLAHIFSNDEKSYSTSLKSRLTISKDTSKSQVVLTMTNMDPVDTATYYCARSVVTGGYYYEGMDVWGQGTTVTVSS VL: SYVLTQPPSVSVAPGQTARITCGGSNIGSESVHWYQQKPGQAPVLVVYSESDRPSGIPERFSGSNSGNTATLTISRVEAGDEADYYCQVWEGESDHVVFGGGTKLTVLG : 0.07

The value of EC50 measured for the binder Ab0348 (antibody, IgG4, V domains shown) VH: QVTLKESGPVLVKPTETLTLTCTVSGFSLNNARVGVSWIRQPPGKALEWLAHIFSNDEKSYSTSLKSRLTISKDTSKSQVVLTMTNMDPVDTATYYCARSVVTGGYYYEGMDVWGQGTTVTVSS VL: SYVLTQPPSVSVAPGQTARITCGGSNIGSESVHWYQQKPGQAPVLVVYEESDRPSGIPERFSGSNSGNTATLTISRVEAGDEADYYCQVWTGESDHVVFGGGTKLTVLG turned out to be 0.53

Recorded result, Ab0302 (antibody, IgG4, V domains shown) VH: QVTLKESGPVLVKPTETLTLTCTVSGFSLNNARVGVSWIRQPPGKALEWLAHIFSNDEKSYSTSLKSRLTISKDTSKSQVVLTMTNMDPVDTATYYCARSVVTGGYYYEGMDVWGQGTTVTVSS VL: SYVLTQPPSVSVAPGQTARITCGGNNIGSESVHWYQQKPGQAPVLVVYDESDRPSGIPERFSGSNSGNTATLTISRVEAGDEADYYCQVWTGNSDHVVFGGGTKLTVLG , EC50: 3.94

Quick note, EC50 for Ab0304 (antibody, IgG4, V domains shown) VH: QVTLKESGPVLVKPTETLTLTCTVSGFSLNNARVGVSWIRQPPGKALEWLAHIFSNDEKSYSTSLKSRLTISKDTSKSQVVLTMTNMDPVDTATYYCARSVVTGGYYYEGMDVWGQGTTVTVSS VL: SYVLTQPPSVSVAPGQTARITCGGNNIGSESVHWYQQKPGQAPVLVVYYESDRPSGIPERFSGSNSGNTATLTISRVEAGDEADYYCQVWTGNSDHVVFGGGTKLTVLG landed at 11.4
